target: human P2Y12 receptor (Homo sapiens, UniProt Q9H244); construct: expressed in transfected cells; host or cells: Chinese Hamster Ovary (CHO) cells; experiment: P2Y12 receptor binding assay (displacement of tritium-labeled 2-methyl-S-ADP on CHO cells); conditions: CHO cells with recombinant expression of the human P2Y12 receptor, 2 hours at RT, Example compounds table
Sequence (Q9H244 whole entry): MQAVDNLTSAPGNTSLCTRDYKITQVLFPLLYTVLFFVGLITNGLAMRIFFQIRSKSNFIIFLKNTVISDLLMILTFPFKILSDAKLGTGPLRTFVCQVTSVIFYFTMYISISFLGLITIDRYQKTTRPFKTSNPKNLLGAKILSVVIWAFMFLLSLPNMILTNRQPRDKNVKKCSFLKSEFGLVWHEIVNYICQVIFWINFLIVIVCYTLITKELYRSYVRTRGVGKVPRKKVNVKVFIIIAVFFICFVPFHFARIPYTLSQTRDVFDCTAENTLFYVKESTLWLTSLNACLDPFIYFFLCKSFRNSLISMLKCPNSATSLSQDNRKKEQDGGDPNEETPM
reported-metric: IC50 (nM)
State just the number; it will be interpreted in nM.

Find the recorded IC50 belonging to CCCCOC(=O)N1CCN(C(=O)[C@H](CCC(=O)O)NC(=O)c2cc([C@@H]3C[C@@H]3COC)nc(-c3ccccc3)n2)CC1 (mixture of isomers) and report it.
9

Find the recorded IC50 belonging to CCCCOC(=O)N1CCN(C(=O)[C@H](CCC(=O)O)NC(=O)c2cc([C@@H]3C[C@H]3COC)nc(-c3ccccc3)n2)CC1 (mixture of isomers) and report it.
3

Find the recorded IC50 belonging to "CCCCOC(=O)N1CCN(C(=O)[C@H](CCC(=O)O)NC(=O)c2cc(C3CC3)nc(-c3ccccc3)n2)CC1" and report it.
6

Find the recorded IC50 belonging to "CCCCOC(=O)N1CCN(C(=O)[C@H](CCC(=O)O)NC(=O)c2cc([C@H]3C[C@@H]3COC)nc(-c3ccc(F)cc3)n2)CC1" and report it.
2

Find the recorded IC50 belonging to "CCCCOC(=O)N1CCN(C(=O)[C@H](CCC(=O)O)NC(=O)c2cc([C@H]3C[C@@H]3CO)nc(-c3ccccc3)n2)CC1" and report it.
4

Find the recorded IC50 belonging to "CCCCOC(=O)N1CCN(C(=O)[C@H](CCC(=O)O)NC(=O)c2cc([C@H]3C[C@@H]3COC)nc(-c3ccccc3)n2)CC1" and report it.
5
